Biological target: UniProtKB Q96S37
Sequence (Q96S37 whole entry): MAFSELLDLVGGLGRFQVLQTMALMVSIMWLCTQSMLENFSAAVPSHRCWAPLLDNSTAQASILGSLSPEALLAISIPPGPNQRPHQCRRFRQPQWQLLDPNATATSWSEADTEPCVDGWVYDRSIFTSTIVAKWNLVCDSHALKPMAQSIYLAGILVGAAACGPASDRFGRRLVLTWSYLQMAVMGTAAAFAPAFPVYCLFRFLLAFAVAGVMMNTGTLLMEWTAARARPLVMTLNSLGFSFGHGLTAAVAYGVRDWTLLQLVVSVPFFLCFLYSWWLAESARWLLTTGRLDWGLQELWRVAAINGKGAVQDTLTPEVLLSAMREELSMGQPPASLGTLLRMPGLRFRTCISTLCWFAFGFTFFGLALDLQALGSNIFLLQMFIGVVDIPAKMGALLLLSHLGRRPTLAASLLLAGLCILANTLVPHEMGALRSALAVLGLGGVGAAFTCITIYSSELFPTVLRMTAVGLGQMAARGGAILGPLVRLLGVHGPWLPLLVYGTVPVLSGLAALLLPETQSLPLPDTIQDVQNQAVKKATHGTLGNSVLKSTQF
Assay: Inhibition of URAT1 (unknown origin) assessed as decrease in uric acid level measured after 15 mins
REPORTED METRIC: IC50 (nM)
Give the value in nM but do not write nM after it.

Given the compound N#Cc1ccc(NS(=O)(=O)c2ccccc2OC(F)(F)F)cc1Cl , what is its reported IC50? 6

Given the compound N#Cc1c(Cl)cc(NS(=O)(=O)c2ccccc2OC(F)(F)F)cc1Cl , what is its reported IC50? 4

---

Biological target: Xanthine dehydrogenase/oxidase (Bos taurus, UniProt P80457)
Sequence (P80457 whole entry): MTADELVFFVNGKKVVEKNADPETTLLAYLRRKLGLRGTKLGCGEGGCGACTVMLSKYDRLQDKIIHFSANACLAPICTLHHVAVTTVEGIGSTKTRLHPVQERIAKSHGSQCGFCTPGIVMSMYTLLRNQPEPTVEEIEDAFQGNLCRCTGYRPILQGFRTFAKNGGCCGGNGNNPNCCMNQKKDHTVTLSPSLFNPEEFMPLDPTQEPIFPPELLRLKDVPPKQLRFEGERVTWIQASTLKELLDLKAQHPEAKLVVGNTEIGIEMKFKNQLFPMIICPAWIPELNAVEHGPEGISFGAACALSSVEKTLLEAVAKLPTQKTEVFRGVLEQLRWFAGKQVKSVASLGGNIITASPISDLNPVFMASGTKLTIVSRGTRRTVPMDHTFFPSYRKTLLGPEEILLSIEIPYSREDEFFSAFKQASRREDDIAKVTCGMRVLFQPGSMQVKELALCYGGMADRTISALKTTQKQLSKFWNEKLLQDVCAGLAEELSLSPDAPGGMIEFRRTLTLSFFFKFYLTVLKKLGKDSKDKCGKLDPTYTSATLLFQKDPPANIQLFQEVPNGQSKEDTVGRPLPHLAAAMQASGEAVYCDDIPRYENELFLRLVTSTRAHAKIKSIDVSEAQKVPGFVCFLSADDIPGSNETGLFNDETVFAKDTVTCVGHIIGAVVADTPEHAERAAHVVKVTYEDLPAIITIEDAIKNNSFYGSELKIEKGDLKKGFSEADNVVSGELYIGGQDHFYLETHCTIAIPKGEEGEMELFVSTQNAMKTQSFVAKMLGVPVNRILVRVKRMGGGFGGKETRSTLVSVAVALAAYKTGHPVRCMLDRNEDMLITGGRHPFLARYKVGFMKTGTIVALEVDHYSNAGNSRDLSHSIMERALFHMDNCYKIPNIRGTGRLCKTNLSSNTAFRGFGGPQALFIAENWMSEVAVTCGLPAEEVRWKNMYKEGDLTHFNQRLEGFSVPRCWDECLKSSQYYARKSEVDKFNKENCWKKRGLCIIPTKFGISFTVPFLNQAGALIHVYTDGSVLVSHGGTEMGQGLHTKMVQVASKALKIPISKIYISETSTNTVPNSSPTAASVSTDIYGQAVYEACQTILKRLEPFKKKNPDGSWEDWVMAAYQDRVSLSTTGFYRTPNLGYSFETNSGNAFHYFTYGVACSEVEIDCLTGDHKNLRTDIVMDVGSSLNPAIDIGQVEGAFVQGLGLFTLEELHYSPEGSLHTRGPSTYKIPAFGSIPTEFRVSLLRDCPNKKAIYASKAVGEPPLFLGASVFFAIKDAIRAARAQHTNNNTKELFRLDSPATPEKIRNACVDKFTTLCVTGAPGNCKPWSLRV
Assay: Inhibition of Bovine milk XO using xanthine as substrate assessed as decrease in uric acid level measured after 5 mins by spectrophotometric analysis
REPORTED METRIC: IC50 (nM)
Give the value in nM but do not write nM after it.

Given the compound O=c1oc2cc(O)cc(O)c2cc1-c1cccc(O)c1 , what is its reported IC50? 2130
